tested on: K562; test: Anticancer activity (cytotoxicity) in CML cell line; type: cell-based; conditions: Table 2; read-out: Anticancer activity (IC50) K562 Sensitive parental
Assignment: determine reported IC50 for the given compounds.
The reply should contain only the number, in µM.

Query :: Return reported IC50; argument: Cc1ccc(NC(=O)c2ccc(CN3CCN(C)CC3)cc2)cc1Nc1nccc(-c2cccnc2)[n+]1[Pt@SP3-2]([NH3+])([NH3+])[Cl] [1c, transplatin-imatinib]
Result :: 1.04

Query :: Request: O=C1[O][Pt]2([NH][C@@H]3CCCC[C@H]3[NH]2)[O]C1=O
Result :: 16.6

Query :: Request: N.N.[Cl][Pt][Cl] [Cisplatin]
Result :: 19.8

Query :: Request: Cc1ccc(NC(=O)c2ccc(CN3CCN(C)CC3)cc2)cc1Nc1nccc(-c2cccnc2)[n+]1[Pt-2]1([Cl])[NH2+]C2CCCCC2[NH2+]1 (stereo not shown)
Result :: 2.27

* * *

target: ROS1 (Homo sapiens); conditions: 10 μM
Sequence (P08922 28-2347): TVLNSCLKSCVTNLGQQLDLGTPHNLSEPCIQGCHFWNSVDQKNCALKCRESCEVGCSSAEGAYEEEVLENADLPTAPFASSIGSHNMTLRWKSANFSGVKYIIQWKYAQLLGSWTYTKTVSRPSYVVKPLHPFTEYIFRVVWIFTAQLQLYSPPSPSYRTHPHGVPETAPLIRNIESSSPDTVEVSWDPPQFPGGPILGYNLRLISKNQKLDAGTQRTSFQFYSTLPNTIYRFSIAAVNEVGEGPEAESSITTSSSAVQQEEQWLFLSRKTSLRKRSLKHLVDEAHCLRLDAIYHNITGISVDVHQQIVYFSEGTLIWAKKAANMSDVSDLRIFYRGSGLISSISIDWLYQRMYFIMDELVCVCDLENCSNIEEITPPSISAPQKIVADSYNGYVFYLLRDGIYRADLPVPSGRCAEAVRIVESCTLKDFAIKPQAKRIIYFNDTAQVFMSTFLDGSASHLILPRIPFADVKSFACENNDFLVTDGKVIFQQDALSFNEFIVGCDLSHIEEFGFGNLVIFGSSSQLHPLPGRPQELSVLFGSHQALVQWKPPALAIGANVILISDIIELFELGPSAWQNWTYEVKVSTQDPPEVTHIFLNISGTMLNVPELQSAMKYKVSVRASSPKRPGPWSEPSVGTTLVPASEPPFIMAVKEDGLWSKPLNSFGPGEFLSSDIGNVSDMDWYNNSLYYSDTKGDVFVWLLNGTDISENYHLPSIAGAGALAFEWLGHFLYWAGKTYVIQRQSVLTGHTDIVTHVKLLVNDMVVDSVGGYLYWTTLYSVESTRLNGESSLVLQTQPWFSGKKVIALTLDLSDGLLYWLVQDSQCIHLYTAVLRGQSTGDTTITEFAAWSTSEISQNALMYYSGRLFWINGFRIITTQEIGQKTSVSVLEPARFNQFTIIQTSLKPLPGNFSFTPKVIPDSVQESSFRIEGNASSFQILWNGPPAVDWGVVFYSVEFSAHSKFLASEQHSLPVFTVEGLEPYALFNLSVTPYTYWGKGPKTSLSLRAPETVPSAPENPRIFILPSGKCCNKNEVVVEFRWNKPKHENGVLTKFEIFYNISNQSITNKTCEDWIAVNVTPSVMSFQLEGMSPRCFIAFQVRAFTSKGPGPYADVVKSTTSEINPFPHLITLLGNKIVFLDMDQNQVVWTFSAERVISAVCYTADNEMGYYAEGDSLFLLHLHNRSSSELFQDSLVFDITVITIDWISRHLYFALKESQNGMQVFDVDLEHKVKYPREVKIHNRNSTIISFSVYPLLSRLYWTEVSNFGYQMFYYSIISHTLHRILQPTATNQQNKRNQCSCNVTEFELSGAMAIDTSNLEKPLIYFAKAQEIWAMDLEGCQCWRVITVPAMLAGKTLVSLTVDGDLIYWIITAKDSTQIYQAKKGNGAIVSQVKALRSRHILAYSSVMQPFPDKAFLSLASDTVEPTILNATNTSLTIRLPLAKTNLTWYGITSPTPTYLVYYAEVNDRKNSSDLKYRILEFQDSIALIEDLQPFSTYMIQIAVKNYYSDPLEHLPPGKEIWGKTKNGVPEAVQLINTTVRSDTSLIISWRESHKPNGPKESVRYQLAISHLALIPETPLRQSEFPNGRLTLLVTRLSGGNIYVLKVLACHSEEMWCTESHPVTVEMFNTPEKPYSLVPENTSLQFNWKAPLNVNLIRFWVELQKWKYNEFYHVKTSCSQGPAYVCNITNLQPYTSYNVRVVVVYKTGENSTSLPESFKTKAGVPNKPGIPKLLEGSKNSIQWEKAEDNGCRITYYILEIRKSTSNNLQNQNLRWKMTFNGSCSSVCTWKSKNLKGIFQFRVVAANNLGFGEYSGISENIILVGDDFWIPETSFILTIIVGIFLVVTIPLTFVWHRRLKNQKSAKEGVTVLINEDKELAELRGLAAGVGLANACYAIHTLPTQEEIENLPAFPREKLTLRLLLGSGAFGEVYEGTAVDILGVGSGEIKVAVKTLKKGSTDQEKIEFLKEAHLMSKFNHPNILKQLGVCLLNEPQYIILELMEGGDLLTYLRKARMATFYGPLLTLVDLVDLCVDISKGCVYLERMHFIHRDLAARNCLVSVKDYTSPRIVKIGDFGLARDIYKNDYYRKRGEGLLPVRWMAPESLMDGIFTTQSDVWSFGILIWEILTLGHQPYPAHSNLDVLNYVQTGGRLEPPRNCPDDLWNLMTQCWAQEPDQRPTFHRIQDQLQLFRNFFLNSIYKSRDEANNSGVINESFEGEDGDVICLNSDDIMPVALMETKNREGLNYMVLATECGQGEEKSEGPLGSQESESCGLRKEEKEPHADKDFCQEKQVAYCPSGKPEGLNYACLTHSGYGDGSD
quantity-name: Percent control
Record the result as number plus unit.

Query :: Return reported Percent control; argument: Cc1ccc(NC(=O)c2ccc(CN3CCN(C)CC3)cc2)cc1Nc1nccc(-c2cccnc2)n1 [Imatinib, reference compound]
Result :: 100%

Query :: Request: C#Cc1cccc(Nc2c3cc(OCCOC)c(OCCOC)cc3nc[n+]2[Pt@SP2-2]([NH3+])([NH3+])[Cl])c1 [2a, cisplatin-erlotinib]
Result :: 91%

Query :: Request: COc1cc2c(Nc3ccc(Br)cc3F)[n+]([Pt-2]3([Cl])[NH2+]C4CCCCC4[NH2+]3)cnc2cc1OCC1CCN(C)CC1 (stereo not shown)
Result :: 74%

Query :: Request: Cc1ccc(NC(=O)c2ccc(CN3CCN(C)CC3)cc2)cc1Nc1nccc(-c2cccnc2)[n+]1[Pt-2]1([Cl])[NH2+]C2CCCCC2[NH2+]1 (stereo not shown)
Result :: 32%

* * *

Assignment: determine reported Percent control for the given molecules.
biological target: FGFR4 (Homo sapiens); construct: purchased DiscoveRx KINOMEscan; format: binding; details: FGFR4; 10 μM
Sequence (P22455 22-802): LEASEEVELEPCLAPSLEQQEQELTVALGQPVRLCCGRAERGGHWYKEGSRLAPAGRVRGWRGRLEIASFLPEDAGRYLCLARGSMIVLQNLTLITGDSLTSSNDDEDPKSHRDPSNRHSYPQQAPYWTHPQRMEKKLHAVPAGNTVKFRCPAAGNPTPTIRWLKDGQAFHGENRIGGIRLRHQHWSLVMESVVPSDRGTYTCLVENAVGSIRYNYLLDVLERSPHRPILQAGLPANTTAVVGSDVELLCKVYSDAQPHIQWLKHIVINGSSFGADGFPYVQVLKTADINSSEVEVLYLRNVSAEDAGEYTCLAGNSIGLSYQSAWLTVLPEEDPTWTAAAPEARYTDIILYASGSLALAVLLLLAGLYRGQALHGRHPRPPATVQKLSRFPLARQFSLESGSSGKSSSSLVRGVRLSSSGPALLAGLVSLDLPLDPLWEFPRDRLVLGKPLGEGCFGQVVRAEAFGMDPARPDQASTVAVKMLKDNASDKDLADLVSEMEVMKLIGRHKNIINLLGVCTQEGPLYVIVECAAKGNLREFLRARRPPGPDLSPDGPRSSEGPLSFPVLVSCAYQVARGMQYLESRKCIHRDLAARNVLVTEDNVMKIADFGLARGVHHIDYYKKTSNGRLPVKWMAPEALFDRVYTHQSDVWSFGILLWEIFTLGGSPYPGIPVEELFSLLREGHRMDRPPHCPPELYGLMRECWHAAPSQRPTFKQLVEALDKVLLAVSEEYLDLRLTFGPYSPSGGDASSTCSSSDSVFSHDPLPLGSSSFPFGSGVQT
The reply should contain only the number, in %.

Query :: Return reported Percent control; argument: Cc1ccc(NC(=O)c2ccc(CN3CCN(C)CC3)cc2)cc1Nc1nccc(-c2cccnc2)n1 [Imatinib, reference compound]
Result :: 100

Query :: Request: Cc1ccc(NC(=O)c2ccc(CN3CCN(C)CC3)cc2)cc1Nc1nccc(-c2cccnc2)[n+]1[Pt-2]1([Cl])[NH2+]C2CCCCC2[NH2+]1 (stereo not shown)
Result :: 94

Query :: Request: C#Cc1cccc(Nc2c3cc(OCCOC)c(OCCOC)cc3nc[n+]2[Pt@SP2-2]([NH3+])([NH3+])[Cl])c1 [2a, cisplatin-erlotinib]
Result :: 99

Query :: Request: COc1cc2c(Nc3ccc(Br)cc3F)[n+]([Pt-2]3([Cl])[NH2+]C4CCCCC4[NH2+]3)cnc2cc1OCC1CCN(C)CC1 (stereo not shown)
Result :: 97

* * *

target: BLK (Homo sapiens); construct: purchased DiscoveRx KINOMEscan; type: binding; details: BLK; 10 μM
Sequence (P51451 whole entry): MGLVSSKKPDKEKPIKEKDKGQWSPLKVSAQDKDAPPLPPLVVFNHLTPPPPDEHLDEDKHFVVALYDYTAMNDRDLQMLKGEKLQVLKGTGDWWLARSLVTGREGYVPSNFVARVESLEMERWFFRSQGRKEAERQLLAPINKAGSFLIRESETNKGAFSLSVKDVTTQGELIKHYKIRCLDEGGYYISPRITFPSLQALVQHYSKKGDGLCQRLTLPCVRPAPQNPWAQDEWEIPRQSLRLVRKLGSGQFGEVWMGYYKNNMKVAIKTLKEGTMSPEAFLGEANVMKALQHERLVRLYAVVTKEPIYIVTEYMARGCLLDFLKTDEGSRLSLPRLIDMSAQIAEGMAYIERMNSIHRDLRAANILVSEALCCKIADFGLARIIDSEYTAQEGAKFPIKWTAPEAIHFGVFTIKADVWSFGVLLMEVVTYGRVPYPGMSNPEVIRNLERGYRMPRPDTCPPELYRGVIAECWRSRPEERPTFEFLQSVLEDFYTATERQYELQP
quantity-name: Percent control

Query :: Return reported Percent control; argument: Cc1ccc(NC(=O)c2ccc(CN3CCN(C)CC3)cc2)cc1Nc1nccc(-c2cccnc2)[n+]1[Pt-2]1([Cl])[NH2+]C2CCCCC2[NH2+]1 (stereo not shown) [1b, oxaliplatin-imatinib]
Result :: 12%

Query :: Request: Cc1ccc(NC(=O)c2ccc(CN3CCN(C)CC3)cc2)cc1Nc1nccc(-c2cccnc2)n1 [Imatinib, reference compound]
Result :: 4.9%

Query :: Request: C#Cc1cccc(Nc2c3cc(OCCOC)c(OCCOC)cc3nc[n+]2[Pt@SP2-2]([NH3+])([NH3+])[Cl])c1 [2a, cisplatin-erlotinib]
Result :: 41%

Query :: Request: COc1cc2c(Nc3ccc(Br)cc3F)[n+]([Pt-2]3([Cl])[NH2+]C4CCCCC4[NH2+]3)cnc2cc1OCC1CCN(C)CC1 (stereo not shown) [3b, oxaliplatin-vandetanib]
Result :: 1.4%
